- System: HL-60(TB) leukemia
- Assay method text: NCI tumour cell line growth inhibition, 48 h; in the data active means GI50 below about 0.43 µM; inactive means the rest
Labels: 1 = active, -1 = inactive

{"Molecule": "CCN(CC)c1ccc(C(=N)c2ccc(N(CC)CC)cc2)cc1", "Answer label": 1}
{"Molecule": "CCN(CC)c1sc(N(CC)CC)c2c1SSSSS2", "Answer label": -1}
{"Molecule": "CC(=O)OC1Oc2ccccc2-c2oc(=O)c(-c3cc4ccc(N(C)C)cc4oc3=O)cc21 (centres undefined)", "Answer label": -1}
{"Molecule": "Fc1cc(F)c(COc2cc(Cn3cnc4c(Cl)nc(Cl)nc43)ccc2C23CC4CC(CC(C4)C2)C3)cc1F", "Answer label": -1}
{"Molecule": "CC(=O)OC1CC(O)C23COC(O)C1(C)C2CC(O)C1(C)C3C(=O)C(O)C2(C)C(c3ccoc3)CC3OC321 (centres undefined)", "Answer label": 1}
{"Molecule": "COc1cc[nH]c1/C=C1\\C(=O)Nc2ccccc21", "Answer label": -1}
{"Molecule": "COc1ccc(OC)c(/C=C/C(=O)N/N=C/c2ccc(Cl)cc2)c1", "Answer label": 1}
{"Molecule": "CCOC(=O)Sc1ncnc2nc[nH]c12", "Answer label": -1}
{"Molecule": "CCOC(=O)c1c(CN2CCN(c3ccccc3)CC2)n(-c2ccccc2)c2cc(Br)c(O)cc12", "Answer label": -1}
{"Molecule": "CC1CN1CC(O)C(O)CN1CC1C (centres undefined)", "Answer label": 1}
{"Molecule": "COc1ccc2c(c1)C(=O)c1c-2n(CCCn2ccnc2)c(=O)c2ccccc12", "Answer label": -1}
{"Molecule": "Clc1nc(Cl)c2ncn(Cc3cccc(COc4cccc(OCc5cccc(Cn6cnc7c(Cl)nc(Cl)nc76)c5)c4)c3)c2n1", "Answer label": -1}
{"Molecule": "N.N.N.N.N.O=C([O-])c1nn[n-]n1.[Cl-].[Co+3]", "Answer label": -1}
{"Molecule": "NCCCC[C@@H]1NC(=O)[C@H]2CCCN2C(=O)[C@H](Cc2ccccc2)NC(=O)[C@H](Cc2ccccc2)CNC1=O", "Answer label": -1}

----------
- System: SNB-75 CNS
- Assay method text: NCI tumour cell line growth inhibition, 48 h
Below, each entry is listed with its recorded TGI.
Measurement name: TGI (µM)

{"Compound": "COC(=O)c1ccccc1/C=C1\\Cc2c(ccc3c2CCC3)C1=O", "Inequality symbol": ">", "Quantitative readout": 100}
{"Compound": "NC(CSS(=O)(=O)O)=NC1CC2CCC1C2 (stereo not given)", "Inequality symbol": ">", "Quantitative readout": 100}
{"Compound": "Cc1cc(C)c(C(=O)CC(=O)c2cccnc2)c(C)c1", "Inequality symbol": ">", "Quantitative readout": 100}
{"Compound": "CCCCCCCC(CC(=O)NC(CO)C(=O)NC(CO)CC(C)C)OC(=O)CC(CCCCCCC)OC(=O)CC(CCCCCCC)OC1OC(C)C(O)C(OC2OC(C)C(O)C(OC(C)=O)C2O)C1O (stereo not given)", "Inequality symbol": "=", "Quantitative readout": 19.1}
{"Compound": "CC/C=C\\C[C@@H]1C/C=C2/C(=O)C=C[C@H]2C/C=C\\CCCC(=O)O1", "Inequality symbol": "=", "Quantitative readout": 2.6}
{"Compound": "CCOC(=O)Sc1ncnc2nc[nH]c12", "Inequality symbol": ">", "Quantitative readout": 100}
{"Compound": "Cc1ccc2nc3c(C(=O)NCCN(C)C)cccc3nc2c1", "Inequality symbol": "=", "Quantitative readout": 42.9}
{"Compound": "NCC(Cl)C(O)c1cnc(N)[nH]1 (stereo not given)", "Inequality symbol": "=", "Quantitative readout": 38.8}
{"Compound": "Cc1sc2nc(N(C)C)oc(=O)c2c1C", "Inequality symbol": ">", "Quantitative readout": 100}
{"Compound": "COc1cc(OC(=O)c2c(O)cc(O)c(O)c2C)cc(C)c1C(=O)Oc1cc(C)c(C(=O)O)c(O)c1", "Inequality symbol": ">", "Quantitative readout": 100}

----------
- System: BT-549 breast
- Assay method text: NCI tumour cell line growth inhibition, 48 h

{"Sample smiles": "NC(=S)N/N=C/c1ccc(OC(=O)COc2ccc(Cl)cc2)cn1", "Tested on": "BT-549 breast", "TGI": "> 100 µM"}
{"Sample smiles": "COc1ccc(C(=O)COc2cccc(/C=C3\\COc4ccc5ccccc5c4C3=O)c2)cc1", "Tested on": "BT-549 breast", "TGI": "> 100 µM"}
{"Sample smiles": "CCS(=O)(=O)c1ccc(OC)c(Nc2ncc(-c3cccc(OC)c3)o2)c1", "Tested on": "BT-549 breast", "TGI": "> 25 µM"}
{"Sample smiles": "COc1cc[nH]c1/C=C1\\C(=O)Nc2ccccc21", "Tested on": "BT-549 breast", "TGI": "> 25 µM"}
{"Sample smiles": "Cc1sc2nc(N(C)C)oc(=O)c2c1C", "Tested on": "BT-549 breast", "TGI": "49.1 µM"}
{"Sample smiles": "Cc1nc2ccccc2c(=O)n1NC(=O)c1ccccn1", "Tested on": "BT-549 breast", "TGI": "> 100 µM"}

----------
- Test system: NCI-H522 lung
- Assay method text: NCI tumour cell line growth inhibition, 48 h
Assign y to entries whose TGI meets or exceeds 30 µM; assign n to the rest.

{"Compound": "O=C1C2=Cc3ccccc3CCN2c2ccccc21", "Tested on": "NCI-H522 lung", "Answer label": "y"}
{"Compound": "COC(=O)C1C2OC(C)(C)OC2CN1S(=O)(=O)c1ccc(C)cc1 (configuration not stated)", "Tested on": "NCI-H522 lung", "Answer label": "y"}
{"Compound": "O=C1NC(=O)c2ccc([N+](=O)[O-])c3cccc1c23", "Tested on": "NCI-H522 lung", "Answer label": "n"}
{"Compound": "COC(=O)C1=CC2C(=O)c3ccccc3C1(c1ccccc1)N2C1CCCCC1 (configuration not stated)", "Tested on": "NCI-H522 lung", "Answer label": "y"}
{"Compound": "COc1cc(NC(=O)c2cc(O)c(CC=C(C)C)c(O)c2)cc2c1O[C@]1(C)CC[C@@H](O)C(C)(C)[C@H]1C2", "Tested on": "NCI-H522 lung", "Answer label": "n"}
{"Compound": "CC(=O)OCC(OC(C)=O)C1C[C@H]2O[C@@H]3[C@H](C[C@H]2O1)O[C@@]1(C[C@@H]3C)C[C@H](C)[C@@H]2O[C@]3(C[C@@H]2O1)C[C@H]1O[C@H]2[C@H](C)[C@H]4OC(=O)C[C@H]5CC[C@@H]6OC7[C@H]8O[C@]9(CC[C@H]%10CC(=O)[C@H](CC[C@H]%11C[C@@H](C)C(=O)C(C[C@@H]4O[C@H]2C[C@H]1O3)O%11)O%10)CC8O[C@@H]7[C@@H](O9)[C@H]6O5 (some centres not stated)", "Tested on": "NCI-H522 lung", "Answer label": "n"}

----------
- Test system: SW-620 colon
- Assay method text: NCI tumour cell line growth inhibition, 48 h

{"Compound": "Cc1ccccc1N(CCC#N)C1=NN(C(=O)CC(=O)Nc2ccccc2)C(c2ccccc2)C1 (stereo not given)", "Inequality symbol": ">", "TGI [µM]": 100}
{"Compound": "CC(C)(C)c1cc(S(=O)(=O)O)c2oc(-c3ccccc3)cc(=O)c2c1", "Inequality symbol": ">", "TGI [µM]": 100}
{"Compound": "Cc1cc(S(=O)(=O)Nc2nc(N)nc(N3N=CCC3C)n2)c(SCC(=O)O)cc1Cl (stereo not given)", "Inequality symbol": ">", "TGI [µM]": 10}
{"Compound": "O=S(=O)(/N=S(/Nc1ccccc1)C(Cl)Cl)c1ccccc1 (stereo not given)", "Inequality symbol": ">", "TGI [µM]": 100}
{"Compound": "COc1ccc2c(c1)CCC1C3(CCCC21C)OCCO3 (stereo not given)", "Inequality symbol": "=", "TGI [µM]": 96.2}
{"Compound": "CCC#CC[C@H]1C/C=C2/C(=O)C=C[C@@H]2C/C=C\\CCCC(=O)O1", "Inequality symbol": "=", "TGI [µM]": 4.15}
{"Compound": "CC(=O)OCC1OC(NC(=S)Nn2c(=O)[nH]c3ccccc3c2=O)C(OC(C)=O)C(OC(C)=O)C1OC(C)=O (stereo not given)", "Inequality symbol": ">", "TGI [µM]": 100}
{"Compound": "COc1ccc(N2C(=O)C3c4[nH]c5ccc(C)cc5c4C4CCC(C(C)(C)C)CC4C3C2=O)cc1 (stereo not given)", "Inequality symbol": "=", "TGI [µM]": 69.8}
{"Compound": "NC1C/C(=N\\O)c2c(Cl)sc(Cl)c21 (stereo not given)", "Inequality symbol": "=", "TGI [µM]": 33.4}
{"Compound": "O=C(c1cccc(O)c1O)c1cn(Cc2ccc(F)cc2)c2cccc(O)c12", "Inequality symbol": "=", "TGI [µM]": 19.9}
